- Tested on: Fibroblast
- experimentalProtocol: Multiplex assay against human fibroblast
- Type: toxicity, cell-based
- conditionSummary: 24 h, 1 µM, compound concentration 1 uM, replicate 1
Each record here notes measured Population Healthy Nuclei (%).

[
  {
    "molecule": "CCOc1cc2ncc(C#N)c(Nc3ccc(OCc4cccc(F)c4)c(Cl)c3)c2cc1NC(=O)/C=C/CN(C)C",
    "Population Healthy Nuclei (%)": 57
  },
  {
    "molecule": "COc1cc(N2CCC(N(C)C)CC2)ccc1Nc1ncc(Cl)c(Nc2ccccc2P(C)(C)=O)n1",
    "Population Healthy Nuclei (%)": 65
  },
  {
    "molecule": "CC(C)N1CCC(C)(C)c2cc(C#Cc3ccc(C(=O)O)cc3)ccc21",
    "Population Healthy Nuclei (%)": 48
  },
  {
    "molecule": "CC(C)(C)c1cnc(CSc2cnc(NC(=O)C3CCNCC3)s2)o1",
    "Population Healthy Nuclei (%)": 47
  },
  {
    "molecule": "COc1cc2c(NC3CCN(C(C)C)CC3)nc(N3CCC(F)(F)CC3)nc2cc1OCCCN1CCCC1",
    "Population Healthy Nuclei (%)": 47
  },
  {
    "molecule": "CN(C)C/C=C/C(=O)Nc1cc2c(Nc3ccc(F)c(Cl)c3)ncnc2cc1O[C@H]1CCOC1.O=C(O)/C=C\\C(=O)O.O=C(O)/C=C\\C(=O)O [AFATINIB DIMALEATE]",
    "Population Healthy Nuclei (%)": 53
  },
  {
    "molecule": "CCn1c(-c2nonc2N)nc2cnc(Oc3cccc(NC(=O)c4ccc(OCCN5CCOCC5)cc4)c3)cc21 [GSK-269962A]",
    "Population Healthy Nuclei (%)": 47
  },
  {
    "molecule": "CN(C)CCOc1ccc(-c2nc(-c3ccncc3)c(-c3ccc4c(c3)CC/C4=N\\O)[nH]2)cc1",
    "Population Healthy Nuclei (%)": 40
  },
  {
    "molecule": "COc1cc2c(Nc3ccc(NC(=O)c4ccccc4)cc3)ncnc2cc1OCCCN1CCOCC1",
    "Population Healthy Nuclei (%)": 47
  },
  {
    "molecule": "COc1ccc(NS(=O)(=O)c2sc3ccc(Cl)cc3c2C)cc1N1CCNCC1.Cl",
    "Population Healthy Nuclei (%)": 52
  },
  {
    "molecule": "CNC(=O)c1nn(C)c2c1C(C)(C)Cc1cnc(Nc3ccc(N4CCN(C)CC4)cc3)nc1-2",
    "Population Healthy Nuclei (%)": 57
  },
  {
    "molecule": "CNC(=O)c1cc(Oc2ccc(NC(=O)Nc3cc(C(C)(C)C)nn3-c3ccc4ncccc4c3)c(F)c2)ccn1",
    "Population Healthy Nuclei (%)": 64
  },
  {
    "molecule": "CNc1oc(-c2cccc3ccccc23)nc1C#N",
    "Population Healthy Nuclei (%)": 27
  },
  {
    "molecule": "CCCn1c(=O)c2[nH]c(C34CC5CC(CC3C5)C4)nc2n(CCC)c1=O",
    "Population Healthy Nuclei (%)": 56
  },
  {
    "molecule": "Nc1ccc(C(=O)Nc2cccc(-c3nc(N4CCOCC4)c4oc5ncccc5c4n3)c2)cn1",
    "Population Healthy Nuclei (%)": 39
  },
  {
    "molecule": "CC(=O)c1cc(-c2cc(C(=O)NC3CC3)ccc2C)c2ncccn12",
    "Population Healthy Nuclei (%)": 45
  },
  {
    "molecule": "c1ccc2oc(-c3csc(C4CCN(Cc5nc6ncccc6[nH]5)CC4)n3)cc2c1",
    "Population Healthy Nuclei (%)": 51
  }
]
